This collection of values is drawn from patent US8039616B2.

Entries with reported IC50 on HCV Polymerase (Hepatitis C virus genotype 1a)
Sequence (P27958 2421-3011): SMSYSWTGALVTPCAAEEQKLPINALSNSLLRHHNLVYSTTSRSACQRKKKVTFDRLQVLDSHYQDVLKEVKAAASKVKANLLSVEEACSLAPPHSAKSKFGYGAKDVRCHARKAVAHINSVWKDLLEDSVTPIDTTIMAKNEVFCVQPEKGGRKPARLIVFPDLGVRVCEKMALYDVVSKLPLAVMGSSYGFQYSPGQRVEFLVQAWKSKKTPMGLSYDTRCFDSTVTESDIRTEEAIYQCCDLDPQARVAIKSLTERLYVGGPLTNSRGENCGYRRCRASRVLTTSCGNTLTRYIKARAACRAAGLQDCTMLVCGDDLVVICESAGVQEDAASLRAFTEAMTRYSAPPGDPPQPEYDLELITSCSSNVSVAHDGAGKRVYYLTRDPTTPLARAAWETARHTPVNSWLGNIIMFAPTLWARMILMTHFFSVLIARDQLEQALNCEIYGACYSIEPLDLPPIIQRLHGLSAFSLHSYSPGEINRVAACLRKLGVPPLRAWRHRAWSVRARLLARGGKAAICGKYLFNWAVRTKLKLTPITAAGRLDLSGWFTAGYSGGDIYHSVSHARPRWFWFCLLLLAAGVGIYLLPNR

Would you please look over these solved cases?
COc1ccc(F)cc1C(=O)N[C@@H]1N=C(c2ccc(Cl)cc2)c2ccccc2NC1=O :: > 1000 nM
COc1ccc(OC)c(C(=O)N[C@H]2N=C(c3ccc(Cl)cc3)c3ccccc3NC2=O)c1 :: < 1000 nM
CCOc1ccccc1C(=O)NC1N=C(c2ccc(Cl)cc2)c2ccccc2NC1=O (stereo not shown) :: > 1000 nM

# input Sample COc1ccc(F)cc1C(=O)N[C@H]1N=C(c2ccc(Cl)cc2)c2ccccc2NC1=O — what was its IC50?
# output > 1000 nM
